- experimental-target: human CB2 receptor (Homo sapiens, UniProt P34972)
- Construct: host or cells: CHO-K1 (Chinese hamster ovary) cells, stably transfected; membranes prepared in house
- Sequence (P34972 whole entry): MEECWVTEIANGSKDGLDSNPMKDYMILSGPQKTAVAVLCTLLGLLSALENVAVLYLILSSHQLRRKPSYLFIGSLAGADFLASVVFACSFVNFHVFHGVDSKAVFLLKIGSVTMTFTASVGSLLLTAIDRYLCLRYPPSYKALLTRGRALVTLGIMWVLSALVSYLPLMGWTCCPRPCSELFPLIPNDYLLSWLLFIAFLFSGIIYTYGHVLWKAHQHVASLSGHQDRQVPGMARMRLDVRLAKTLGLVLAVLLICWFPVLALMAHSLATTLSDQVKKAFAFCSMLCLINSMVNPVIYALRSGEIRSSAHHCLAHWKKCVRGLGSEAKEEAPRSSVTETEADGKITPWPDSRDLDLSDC
- assay-info: CB2 radioligand competitive binding assay ([3H]CP 55,940 displacement)
- assay-context: fold difference between CB1 and CB2 binding, printed in column of receptor with higher affinity; 1.00 in both = same affinity
readout-kind: Selectivity CB2
Give only the figure.

Example cases with answers are listed next.
molecule="C=C(C)C1CCC(C)=CC1c1c(O)cc(CCCCC)cc1OCOCC (stereo not drawn) [Compound 17d]" quantitative_result=1.53
molecule="C=C(C)C1CCC(C)=CC1c1c(OCOCC)cc(CCCCC)cc1OCOCC (stereo not drawn)" quantitative_result=3.03
molecule="CCCCCc1cc(O)c(C2C=C(C)CCC2)c(OCOCC)c1 (stereo not drawn) [Compound 17c]" quantitative_result=2.47

Give the measured Selectivity CB2 of C=C(C)C1CCC(C)=CC1c1c(O)cc(C(C)(C)CCCCCC)cc1OCN(C(=O)OC)c1ccccc1 (stereo not drawn) [Compound 20d] .
1.94

Same lookup for C=C(C)C1CCC(C)=CC1c1c(OCOC(=O)C(C)(C)C)cc(CCCCC)cc1OCOC(=O)C(C)(C)C (stereo not drawn) , please.
2.00

Can you check C=C(C)C1CCC(C)=CC1c1c(O)cc(CCCCC)cc1OCOC(=O)C(C)(C)C (stereo not drawn) next?
1.76

Repeat for the following molecule: C=C(C)C1CCC(C)=CC1c1c(O)cc(C(C)(C)CCCCCC)cc1OCOCC (stereo not drawn) [Compound 19d]
1.83

Next up: CCCCCc1cc(OCOCCOC)c(-c2cccc(C)c2)c(OCOCCOC)c1
19.73

Same lookup for CCCCCc1cc(O)c(C2C=C(C)CCC2)c(OCOCCOC)c1 (stereo not drawn) , please.
13.33
